The measurements presented in this section are drawn from paper PMC9112550.

- Test system: HeLa cells
- ASSAY_PROCEDURE: In vitro toxicity assay (MTT), HeLa
- Format: cell-based, human
- PARTICULARS: HeLa; MTT; 24 h, 37°C; triplicates
- Source text: […]
Where no end group is shown, it is not given here.
MEASURE_NAME: IC50 (mM)
Provide only the numeric value, understood in mM.

Param readout = IC50; param system = HeLa cells; param query = RRIRPRPPRLPRPRPRPLPFPRP [Bac7_1-23] ; response: value
1.46
